Tested on: phospho-ERK in MIA PaCa2 or H358 cells
Test: Phospho-ERK assay (AlphaLisa)
Format: cell-based
Conditions: 1.5 h, MIA PaCa2 or H358 cells, compound incubated 1.5 hours; read-out: IC50 (p-ERK)
value-kind: IC50

Task: What value of measured IC50 is listed for CC(C)(O)Cn1cnc2ccc(Sc3cnc(N4CCC5(CC4)Cc4scnc4[C@H]5N)cn3)c(Cl)c2c1=O ?
Output: < 45 nM

Task: // same read-out, input: COc1cccc(Cc2nc3ccc(Sc4cnc(N5CCC6(CC5)CO[C@@H](C)[C@H]6N)cn4)c(Cl)c3[nH]2)c1
Output: > 1500 nM

Task: Queued: C[C@@H]1OCC2(CCN(c3cnc(Sc4ccc5c(c4Cl)C(=O)N(Cc4ccccc4)CC5)cn3)CC2)[C@@H]1N
Output: > 1500 nM

Task: Moving on to C[C@@H]1OCC2(CCN(c3cnc(Sc4ccc5ncn(Cc6ccccn6)c(=O)c5c4Cl)cn3)CC2)[C@@H]1N
Output: < 45 nM

Task: Moving on to CC1(N)CCN(c2cnc(Sc3ccc4ncn(Cc5cccc([N+](=O)[O-])c5)c(=O)c4c3Cl)cn2)CC1
Output: 45 to 1500 nM

Task: Here is the next compound: C[C@@H]1OCC2(CCN(c3cnc(Sc4ccc5ncn(Cc6cncnc6)c(=O)c5c4Cl)cn3)CC2)[C@@H]1N
Output: < 45 nM

Task: Please give the result for COCCn1cnc2ccc(Sc3cnc(N4CCC5(CC4)Cc4scnc4[C@H]5N)cn3)c(Cl)c2c1=O too.
Output: < 45 nM

Task: And what about the compound COc1ccc(Cn2cnc3ccc(Sc4cnc(N5CCC6(CC5)CO[C@@H](C)[C@H]6N)cn4)c(Cl)c3c2=O)c(F)c1 ?
Output: < 45 nM

Task: Same read-out for C[C@@H]1OCC2(CCN(c3cnc(Sc4ccc5ncn(CC6(F)CCOCC6)c(=O)c5c4Cl)cn3)CC2)[C@@H]1N ?
Output: < 45 nM

Task: Here is the next compound: C[C@@H]1OCC2(CCN(c3cnc(Sc4ccc5ncn(Cc6cccnc6N)c(=O)c5c4Cl)cn3)CC2)[C@@H]1N
Output: 45 to 1500 nM

Task: Request: CC1(CN)CCN(c2cnc(Sc3ccc4nc[nH]c(=O)c4c3Cl)cn2)CC1
Output: 45 to 1500 nM

Task: CC(C)(O)Cn1cnc2ccc(Sc3cnc(N4CCC5(CC4)Cc4ncsc4[C@@H]5N)cn3)c(Cl)c2c1=O , same question.
Output: 45 to 1500 nM

Task: Another compound to check: C[C@@H]1OCC2(CCN(c3cnc(Sc4ccc5ncn(CC6(F)COC6)c(=O)c5c4Cl)cn3)CC2)[C@@H]1N
Output: < 45 nM

Task: Again, but for CC1(N)CCN(c2cnc(Sc3ccc4nc[nH]c(=O)c4c3Cl)cn2)CC1
Output: 45 to 1500 nM

Task: Query C[C@@H]1OCC2(CCN(c3cnc(Sc4ccc5ncn(Cc6ccnc(C#N)c6)c(=O)c5c4Cl)cn3)CC2)[C@@H]1N next
Output: < 45 nM

Task: Also need N[C@@H]1c2cccnc2CC12CCN(c1cnc(Sc3ccc4ncn(Cc5ccoc5)c(=O)c4c3Cl)cn1)CC2 , thanks.
Output: < 45 nM

Task: Would you kindly repeat that for C[C@@H]1OCC2(CCN(c3cnc(Sc4cccc(S(N)(=O)=O)c4Cl)cn3)CC2)[C@@H]1N ?
Output: < 45 nM

Task: Also need Cn1c(N2CCN(CC(N)CCc3ccccc3)CC2)nc(N)c(Sc2cccc(Cl)c2Cl)c1=O (centres unmarked) , thanks.
Output: > 1500 nM

Task: Could you do the same for C[C@@H]1OCC2(CCN(c3cnc(Sc4ccc5ncn(Cc6cnccn6)c(=O)c5c4Cl)cn3)CC2)[C@@H]1N , please?
Output: < 45 nM

Task: Field entry: N[C@@H]1c2cccnc2CC12CCN(c1cnc(Sc3ccc4ncn(CCCF)c(=O)c4c3Cl)cn1)CC2
Output: < 45 nM

Task: Query COC(C)Cn1cnc2ccc(Sc3cnc(N4CCC5(CC4)CO[C@@H](C)[C@H]5N)cn3)c(Cl)c2c1=O (some centres unmarked) next
Output: < 45 nM

Task: Same question, Cc1ccc(Cn2cnc3ccc(Sc4cnc(N5CCC6(CC5)CO[C@@H](C)[C@H]6N)cn4)c(Cl)c3c2=O)c(F)c1 this time
Output: < 45 nM

Task: Okay, and NC(=O)c1nc(Sc2ccc3ncn(CC4CCOCC4)c(=O)c3c2Cl)cnc1N1CCC2(CC1)Cc1ncsc1[C@H]2N ?
Output: < 45 nM

Task: Continue with CC(=O)NCCn1cnc2ccc(Sc3cnc(N4CCC5(CC4)CO[C@@H](C)[C@H]5N)cn3)c(Cl)c2c1=O
Output: < 45 nM

Task: Repeat with COc1ccc(Cn2cnc3ccc(Sc4cnc(N5CCC6(CC5)CO[C@@H](C)[C@H]6N)cn4)c(Cl)c3c2=O)cc1
Output: < 45 nM

Task: And the next one, C[C@@H]1OCC2(CCN(c3cnc(Sc4ccc5ncn(Cc6ccccc6F)c(=O)c5c4Cl)cn3)CC2)[C@@H]1N ?
Output: < 45 nM

Task: What do you have for C[C@@H]1OCC2(CCN(c3cnc(Sc4ccc5ncn(CCC(F)(F)F)c(=O)c5c4Cl)cn3)CC2)[C@@H]1N ?
Output: < 45 nM

Task: Subsequent entry: CC(N)CN1CCN(c2nc(N)c(Sc3cccc(Cl)c3Cl)c(=O)n2C)CC1 (centres unmarked)
Output: > 1500 nM

Task: Now the same for C[C@@H]1OCC2(CCN(c3cnc(Sc4ccc5ncn(C6CCCCC6)c(=O)c5c4Cl)cn3)CC2)[C@@H]1N
Output: 45 to 1500 nM

###

Target: SHP2 (full length) (Homo sapiens)
Construct: SHP2 (full length, diluted to 100 pM final concentration in reaction buffer, BPS bioscience, US); purchased BPS bioscience, US
Assay: Phosphatase assay (PTPase assay) with DiFMUP substrate
Type: biochemical
Conditions: SHP2 activated with SHP2 activating peptide; DiFMUP 80 μM, 2 hours; fluorescence; read-out: IC50 (PTPase aS say)
value-kind: IC50

Task: I would be grateful if you could share the reported IC50 for C[C@@H]1OCC2(CCN(c3cnc(Sc4ccc5ncn(CCCF)c(=O)c5c4Cl)cn3)CC2)[C@@H]1N .
Output: < 3 nM

Task: Item: N[C@@H]1c2cccnc2CC12CCN(c1cnc(Sc3ccc4ncn(Cc5ccccc5)c(=O)c4c3Cl)cn1)CC2
Output: < 3 nM

Task: Repeat with C[C@@H]1OCC2(CCN(c3cnc(Sc4ccnc(C(=O)NCc5cccnc5)c4Cl)cn3)CC2)[C@@H]1N
Output: 3 to 100 nM

Task: Another molecule: COCCn1cnc2ccc(Sc3cnc(N4CCC5(CC4)Cc4ccccc4[C@H]5N)cn3)c(Cl)c2c1=O
Output: < 3 nM

Task: Try C[C@@H]1OCC2(CCN(c3cnc(Sc4ccc5ncn(Cc6ccncn6)c(=O)c5c4Cl)cn3)CC2)[C@@H]1N next.
Output: < 3 nM

Task: Subsequent entry: Cn1c(N2CCN(C[C@@H](N)c3ccccc3)CC2)nc(N)c(Sc2cccc(Cl)c2Cl)c1=O
Output: > 100 nM

Task: Repeat with C[C@@H]1OCC2(CCN(c3cnc(Sc4ccc5nn(Cc6ccccc6)cc5c4Cl)cn3)CC2)[C@@H]1N
Output: 3 to 100 nM

Task: Another molecule: COCCn1cnc2ccc(Sc3n[nH]c4nc(N5CCC6(CC5)CO[C@@H](C)[C@H]6N)cnc34)c(Cl)c2c1=O
Output: < 3 nM

Task: Subsequent entry: COc1cccc(Cn2cnc3ccc(Sc4cnc(N5CCC6(CC5)CO[C@@H](C)[C@H]6N)cn4)c(Cl)c3c2=O)c1F
Output: < 3 nM

Task: Again, but for Cn1c(N2CCN(CC(N)Cc3cccnc3)CC2)nc(N)c(Sc2cccc(Cl)c2Cl)c1=O (stereo not drawn)
Output: > 100 nM

Task: Repeat for the following molecule: COCCn1cnc2ccc(Sc3cnc(N4CCC5(CC4)Cc4nc(Cl)sc4[C@@H]5N)cn3)c(Cl)c2c1=O
Output: 3 to 100 nM

Task: How about C[C@@H]1OCC2(CCN(c3cnc(Sc4ccc5ncn(Cc6cncnc6)c(=O)c5c4Cl)cn3)CC2)[C@@H]1N ?
Output: 3 to 100 nM

Task: Now give it for COCCn1cnc2ccc(Sc3cnc(N4CCC5(CC4)Cc4ncsc4[C@H]5N)cn3)c(Cl)c2c1=O too.
Output: < 3 nM

Task: Please answer likewise for N[C@@H]1c2ccccc2CC12CCN(c1cnc(Sc3ccc4ncn(Cc5ccccc5)c(=O)c4c3Cl)cn1)CC2
Output: < 3 nM

Task: // repeat for Cn1c(N2CCN(CCCN)CC2)nc(N)c(Sc2cccc(Cl)c2Cl)c1=O and report
Output: > 100 nM

###

For each record, write down the corresponding pIC50.
Target: SHP2 (full length) (Homo sapiens, UniProt Q06124)
Construct: SHP2 (full length, diluted to 100 pM final concentration in reaction buffer, BPS bioscience, US); purchased BPS bioscience, US
Sequence (Q06124 whole entry): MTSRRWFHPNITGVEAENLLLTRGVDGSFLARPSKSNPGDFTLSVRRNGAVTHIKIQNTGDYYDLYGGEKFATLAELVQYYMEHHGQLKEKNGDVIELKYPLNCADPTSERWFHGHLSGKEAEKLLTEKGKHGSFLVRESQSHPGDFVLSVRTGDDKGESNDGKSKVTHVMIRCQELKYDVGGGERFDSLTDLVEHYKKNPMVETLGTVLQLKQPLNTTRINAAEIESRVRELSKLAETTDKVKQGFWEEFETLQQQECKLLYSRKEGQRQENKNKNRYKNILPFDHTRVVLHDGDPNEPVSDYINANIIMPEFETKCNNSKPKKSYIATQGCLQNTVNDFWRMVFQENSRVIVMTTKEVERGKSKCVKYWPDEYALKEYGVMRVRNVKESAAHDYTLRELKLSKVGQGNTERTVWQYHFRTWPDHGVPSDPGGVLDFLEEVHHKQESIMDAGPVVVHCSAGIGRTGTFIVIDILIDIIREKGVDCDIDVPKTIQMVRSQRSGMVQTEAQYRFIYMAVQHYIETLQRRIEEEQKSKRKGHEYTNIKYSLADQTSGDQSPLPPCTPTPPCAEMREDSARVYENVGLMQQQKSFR
Test: Phosphatase assay (PTPase assay) with DiFMUP substrate
Format: biochemical
Conditions: SHP2 activated with SHP2 activating peptide; DiFMUP 80 μM, 2 hours; fluorescence; read-out: IC50 (PTPase aS say)
pIC50: −log10 of the molar value.

Task: Name the recorded pIC50 for C[C@@H]1OCC2(CCN(c3cnc(Sc4ccc5ncn(Cc6ccc7cc[nH]c7n6)c(=O)c5c4Cl)cn3)CC2)[C@@H]1N .
Output: > 8.52

Task: And then C[C@@H]1OCC2(CCN(c3cnc(Sc4ccc5ncn(CCCN(C)C)c(=O)c5c4Cl)cn3)CC2)[C@@H]1N , what is it?
Output: 7.00 to 8.52

Task: And for CC(C)(O)Cn1cnc2ccc(Sc3cnc(N4CCC5(CC4)Cc4scnc4[C@H]5N)cn3)c(Cl)c2c1=O ?
Output: > 8.52

Task: Can you check C[C@@H]1OCC2(CCN(c3cnc(Sc4ccc5ncn(Cc6cccc(F)c6)c(=O)c5c4Cl)cn3)CC2)[C@@H]1N next?
Output: > 8.52

Task: Thanks! And COCCn1cnc2ccc(Sc3cnc(N4CCC5(CC4)Cc4ncccc4[C@H]5N)cn3)c(Cl)c2c1=O ?
Output: 7.00 to 8.52

Task: Moving on to the next compound: CC1(CN)CCN(c2cnc(Sc3ccc4ncn(Cc5ccccc5)c(=O)c4c3Cl)cn2)CC1
Output: 7.00 to 8.52

Task: Record: Cn1c(N2CCOC(CN)C2)nc(N)c(Sc2cccc(Cl)c2Cl)c1=O (stereo not shown)
Output: < 7.00

Data origin, for the record: patent US12029739B2
